# System: Leishmania donovani axenic amastigote parasites
# assay-name: Leishmania donovani axenic amastigote proliferation assay (Cell TiterGlo luminescence, 2 day incubation)
# Assay type: cell-based
# condition-info: Leishmania donovani, L. donovani axenic amastigotes; read-out: L. donovani amastigotes EC50
// reported pEC50 for each item listed
The meaning of pEC50 here: minus log10 of the concentration in molar units.

Query: Query pEC50 for `O=C(Nc1ccc(F)c(-c2cn3cc(Br)cnc3n2)c1)N1CCOCC1`
Result: 5.13

Query: Query pEC50 for Cc1nc(C)c(C(=O)Nc2ccc(F)c(-c3cn4cc(NC5=NC(C)CO5)cnc4n3)c2)o1 (centres unmarked)
Result: 5.45

New cases:
Query: Query pEC50 for `Cc1nc(C)c(C(=O)Nc2ccc(F)c(-c3cn4cc(C5CCOCC5)cnc4n3)c2)o1`
Result: 6.90

Query: Query pEC50 for `CC(C)c1cnc2nc(-c3cc(NC(=O)N4CCC4)ccc3F)cn2c1`
Result: 7.08

Query: Query pEC50 for `O=C(Nc1ccc(F)c(-c2cn3cc(-c4ccccn4)cnc3n2)c1)N1CC[C@@H](F)C1`
Result: 8.05
